A compilation of pKi values for Carbonic anhydrase 2 (Homo sapiens, UniProt P00918) from the published literature.
pKi: −log10 of the molar value.
property: pKi

[
  {
    "molecule": "Cc1cc(O)c(-c2cc(C(=O)NCCc3ccc(S(N)(=O)=O)cc3)[nH]n2)cc1C",
    "property": "pKi",
    "measured_value": 7.60
  }
]

[I] NS(=O)(=O)c1ccc(-n2nnc(S(=O)(=O)c3ccccc3)c2-c2cccc([N+](=O)[O-])c2)cc1
[II] CC1(C)CC(=O)c2cnc(Nc3ccc(S(=O)(=O)Nc4ccccc4)cc3)nc2C1
Prompt line: Could you please tell me which of these two has the higher pKi: I or II ? Please respond with the label that marks your chosen entry.
Response line: I
(I: 8.21, II: 5.13)

[I] COc1ccc(-c2c(S(=O)(=O)c3ccccc3)nnn2-c2ccc(S(N)(=O)=O)cc2)cc1Br
[II] COc1ccccc1C1=NN(c2ccc(S(N)(=O)=O)cc2)C(c2ccc3c(c2)OCO3)C1 (centres unmarked)
[III] CCOC(=O)c1ccc(NC(=O)NCc2cn(CCCCS(N)(=O)=O)nn2)cc1
Prompt line: Sort by pKi, descending. Please, when replying, give the labels in the order that was requested.
Response line: I, III, II
